# key: entry, value: EC50
Target: F508delCFTR (Homo sapiens, UniProt P13569, DEL508-508)
Construct: expressed in transfected cells; host or cells: CFBE41o- human lung-derived epithelial cells (CFBE41o-F508delCFTR-HRP), doxycycline-inducible
Sequence (P13569 with tags, fused parts or gaps DEL508-508): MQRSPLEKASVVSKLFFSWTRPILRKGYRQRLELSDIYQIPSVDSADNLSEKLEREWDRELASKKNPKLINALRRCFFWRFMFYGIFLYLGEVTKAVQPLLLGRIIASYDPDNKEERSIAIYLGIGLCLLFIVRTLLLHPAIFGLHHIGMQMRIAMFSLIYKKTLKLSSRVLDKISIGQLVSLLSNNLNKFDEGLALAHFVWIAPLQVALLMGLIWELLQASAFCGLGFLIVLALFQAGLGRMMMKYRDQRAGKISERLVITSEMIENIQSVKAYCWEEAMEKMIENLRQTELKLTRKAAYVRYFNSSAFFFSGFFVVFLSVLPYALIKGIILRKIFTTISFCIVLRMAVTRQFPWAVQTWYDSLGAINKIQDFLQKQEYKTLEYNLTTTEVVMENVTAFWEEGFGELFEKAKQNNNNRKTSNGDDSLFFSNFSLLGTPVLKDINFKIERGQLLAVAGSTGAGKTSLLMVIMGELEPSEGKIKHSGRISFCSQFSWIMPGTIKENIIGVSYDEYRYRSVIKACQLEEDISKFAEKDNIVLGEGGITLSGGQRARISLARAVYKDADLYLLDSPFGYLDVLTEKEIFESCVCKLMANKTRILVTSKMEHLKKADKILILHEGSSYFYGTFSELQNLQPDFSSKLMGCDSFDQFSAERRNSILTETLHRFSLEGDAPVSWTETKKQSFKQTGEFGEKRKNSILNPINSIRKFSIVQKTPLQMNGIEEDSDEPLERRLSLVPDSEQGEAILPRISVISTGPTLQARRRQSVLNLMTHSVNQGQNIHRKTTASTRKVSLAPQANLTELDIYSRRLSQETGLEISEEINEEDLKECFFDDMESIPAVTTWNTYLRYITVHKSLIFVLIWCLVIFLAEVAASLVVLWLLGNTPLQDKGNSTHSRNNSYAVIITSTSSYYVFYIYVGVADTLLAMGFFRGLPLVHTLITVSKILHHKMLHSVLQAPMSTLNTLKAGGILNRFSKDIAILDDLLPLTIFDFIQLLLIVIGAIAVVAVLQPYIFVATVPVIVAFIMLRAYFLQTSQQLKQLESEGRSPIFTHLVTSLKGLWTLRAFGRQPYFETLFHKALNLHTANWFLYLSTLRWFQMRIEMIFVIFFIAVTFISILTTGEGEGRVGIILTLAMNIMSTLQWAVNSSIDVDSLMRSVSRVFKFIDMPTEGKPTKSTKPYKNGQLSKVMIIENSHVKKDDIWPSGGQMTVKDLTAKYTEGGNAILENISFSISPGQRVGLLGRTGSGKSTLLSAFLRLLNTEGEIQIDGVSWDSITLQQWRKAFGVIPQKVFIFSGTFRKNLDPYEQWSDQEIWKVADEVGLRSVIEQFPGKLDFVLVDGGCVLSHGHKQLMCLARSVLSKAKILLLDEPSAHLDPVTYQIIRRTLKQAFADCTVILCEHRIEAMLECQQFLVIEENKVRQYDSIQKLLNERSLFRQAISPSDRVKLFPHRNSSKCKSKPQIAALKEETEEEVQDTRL
Test: Cell Surface Expression-Horse Radish Peroxidase (CSE-HRP) assay, test compound without co-corrector
Format: cell-based
Details: test compound without co-corrector

Example entries and their recorded answers appear below.
CCC1(C(=O)NS(=O)(=O)c2cccc3c(Br)cccc23)CCc2c(Cl)cccc21 (centres unmarked) = < 3 µM
O=C(NS(=O)(=O)c1cccc2ccccc12)C1(CCn2cccn2)CCc2c(Cl)cccc21 (centres unmarked) = < 3 µM
COc1ccc2c(c1)[C@](C)(C(=O)NS(=O)(=O)c1cccc3ccccc13)CC2 = 3 to 10 µM
COc1cccc2c1CCC2C(=O)NS(=O)(=O)c1cccc(F)c1C#N (centres unmarked) = ≥ 10 µM

Kindly consider the entry below.
query: Give the measured EC50 of COc1cccc2c1CCC2C(=O)NS(=O)(=O)c1cc(C)c(N)cc1Cl (centres unmarked) .
result: ≥ 10 µM

----------
Molecular target: F508delCFTR (Homo sapiens, UniProt P13569, DEL508-508)
Construct: expressed in transfected cells; host or cells: CFBE41o- human lung-derived epithelial cells (CFBE41o-F508delCFTR-HRP), doxycycline-inducible
Assay: Cell Surface Expression-Horse Radish Peroxidase (CSE-HRP) assay, test compound with co-corrector
Format: cell-based
Settings: with 2 μM co-corrector
observed_property: EC50

Consider the following illustrative entries.
O=C(NS(=O)(=O)c1cccc2ccccc12)[C@H]1CCCc2cccc(Cl)c21 = < 3 µM
COc1ccc(C2CCC2)c2c1[C@@H](C(=O)NS(=O)(=O)c1cccc3c1CCCN3)CC2 = 3 to 10 µM
O=C(C1CCCc2c(OCc3ccccc3)ccc(Br)c21)N(Cc1ccccc1)S(=O)(=O)c1cccc2ccccc12 (centres unmarked) = ≥ 10 µM
COc1ccccc1S(=O)(=O)NC(=O)C1CCc2c(OC)cccc21 (centres unmarked) = 3 to 10 µM
COc1ccc(C2CCC2)c2c1[C@@H](C(=O)NS(=O)(=O)c1cccc3c1CCCN3)C2 (single isomer, unassigned) = 3 to 10 µM

query: # input compound: Cc1nn(C)c(C)c1S(=O)(=O)NC(=O)C1CCc2c(Cl)cccc21 (centres unmarked) ; wanted: its EC50
result: ≥ 10 µM

query: Which EC50 is listed for CCC1(C(=O)NS(=O)(=O)c2ccccc2COC)CCc2c(Cl)cccc21 (centres unmarked) ?
result: < 3 µM

query: Query: EC50; subject: COc1ccc(C2CCC2)c2c1[C@H](C(=O)NS(=O)(=O)c1cccc3ncc(C)n13)C2
result: < 3 µM

----------
Listed here are compounds together with their documented pEC50.
Molecular target: F508delCFTR (Homo sapiens, UniProt P13569, DEL508-508)
Construct: expressed in transfected cells; host or cells: CFBE41o- human lung-derived epithelial cells (CFBE41o-F508delCFTR-HRP), doxycycline-inducible
Assay: Cell Surface Expression-Horse Radish Peroxidase (CSE-HRP) assay, test compound without co-corrector
Format: cell-based
Details: test compound without co-corrector
Protocol: Cell Surface Expression-Horse Radish Peroxidase (CSE-HRP) Assay […] The % activity measured at each of the 8 test concentrations of the test compound added either without or with a co-corrector (2 μM of 3-[(2R,4R)-4-({[1-(2,2-difluoro-1,3-benzodioxol-5-yl)cyclopropyl]carbonyl}amino)-7-methoxy-3,4-dihydro-2H-chromen-2-yl]benzoic acid) was normalized to the on-plate positive control using the following formulae: […]
pEC50: −log10 of the molar value.

COc1ccc(Br)c2c1C(C(=O)NS(=O)(=O)c1cccc3nccn13)CC2 (stereo not drawn) [Example I-78] = 5.00 to 5.52
CC1(C(=O)NS(=O)(=O)c2cccc3ccccc23)CCc2c(Cl)cccc21 (stereo not drawn) [Example I-38] = 5.00 to 5.52
COc1ccc(C#N)c2c1C(C(=O)NS(=O)(=O)c1cccc3ccccc13)CC2 (stereo not drawn) [II-110] = 5.00 to 5.52
O=C(NS(=O)(=O)c1cccc2ccccc12)C1(CCN2CCC(F)(F)C2)CCc2c(Cl)cccc21 (stereo not drawn) [Example I-16] = > 5.52
O=C(NS(=O)(=O)c1cccc2ccccc12)C1(Cc2ccccc2)CCc2c(Cl)cccc21 (stereo not drawn) [Example I-5] = > 5.52

query: Look up pEC50 for this compound: O=C(NS(=O)(=O)c1cccc(Cl)c1)C1CCc2c(Cl)cccc21 (stereo not drawn) [II-26]
result: ≤ 5.00

query: For COc1ccc(C2CCC2)c2c1[C@@H](C(=O)NS(=O)(=O)c1cccc3ncccc13)CC2 [Example I-104] , what is its reported pEC50?
result: 5.00 to 5.52

query: Quick one: pEC50 of CC[C@]1(C(=O)NS(=O)(=O)c2cccc3ccccc23)CCCc2cccc(Cl)c21 [Example I-64] ?
result: > 5.52

query: Look at this compound and give its reported pEC50. COCCS(=O)(=O)NC(=O)C1CCc2c(OC)cccc21 (stereo not drawn) [III-16]
result: ≤ 5.00

query: So what does the record say about pEC50 for COc1cccc2c1CC(C(=O)NS(=O)(=O)c1cccc3ccccc13)C2 (stereo not drawn) [II-48] ?
result: 5.00 to 5.52

query: What pEC50 value was documented for this compound, COc1ccc(CC(C)C)c2c1C(C(=O)NS(=O)(=O)c1cccc3ncccc13)CC2 (stereo not drawn) [Example I-140] ?
result: > 5.52

query: May I ask what pEC50 has been recorded for CC(C)Oc1ccc(Br)c2c1C(C(=O)NS(=O)(=O)c1cccc3ccccc13)CC2 (stereo not drawn) [Example I-54] ?
result: 5.00 to 5.52

query: Please give the measured pEC50 for this compound: COc1cccc2c1CCC2C(=O)NS(=O)(=O)c1cc(F)ccc1F (stereo not drawn) [III-74]
result: ≤ 5.00

----------
Target: F508delCFTR (Homo sapiens, UniProt P13569, DEL508-508)
Construct: expressed in transfected cells; host or cells: CFBE41o- human lung-derived epithelial cells (CFBE41o-F508delCFTR-HRP), doxycycline-inducible
Experiment: Cell Surface Expression-Horse Radish Peroxidase (CSE-HRP) assay, test compound with co-corrector
Assay type: cell-based
Conditions: CSE-HRP assay, test compound with 2 μM co-corrector
Known EC50 of a selection of molecules

Below are worked cases with known answers.
CNC(=O)c1ccc(OC)c2c1CCC2C(=O)NS(=O)(=O)c1cccc2ccccc12 (stereo not drawn) [III-186] = ≥ 10 µM
CCC1(C(=O)NS(=O)(=O)c2ccc(C)cc2C)CCc2c(Cl)cccc21 (stereo not drawn) [III-114] = < 3 µM
COc1ccc(-c2ccc(C3CC3)nc2)c2c1C(C(=O)NS(=O)(=O)c1cccc3ccccc13)CCC2 (stereo not drawn) [III-165] = < 3 µM
N#CCC1(C(=O)NS(=O)(=O)c2cccc3ccccc23)CCc2c(Cl)cccc21 (stereo not drawn) [Example III-155] = 3 to 10 µM
CCC1(C(=O)NS(=O)(=O)c2cccnc2Cl)CCc2c(Cl)cccc21 (stereo not drawn) [III-132] = 3 to 10 µM

query: Form field: reported EC50 of CCC1(C(=O)NS(=O)(=O)c2ncccc2C(=O)N(C)C)CCc2c(Cl)cccc21 (stereo not drawn) [III-135]
result: ≥ 10 µM

query: What value of EC50 has been reported for the following molecule? Cc1cncc(-c2cccc3c2CCC3C(=O)NS(=O)(=O)c2ccccc2C)c1 (stereo not drawn) [III-92]
result: ≥ 10 µM

query: Give its EC50 value. Item: CCOc1ccc(S(=O)(=O)NC(=O)C2CCc3c(Br)ccc(OC)c32)c2ccccc12 (stereo not drawn) [III-161]
result: 3 to 10 µM

query: Looking for the measured EC50 of COc1cccc2c1CCC[C@H]2C(=O)NS(=O)(=O)c1cccnc1N [III-107] , can you help?
result: 3 to 10 µM

----------
Target: F508delCFTR (Homo sapiens, UniProt P13569, DEL508-508)
Construct: expressed in transfected cells; host or cells: CFBE41o- human lung-derived epithelial cells (CFBE41o-F508delCFTR-HRP), doxycycline-inducible
Test: Cell Surface Expression-Horse Radish Peroxidase (CSE-HRP) assay, test compound with co-corrector;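 on Maximum % activity (with co-corrector): percent of 2 µM positive control corrector over DMSO; co-corrector is that same compound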
Assay type: cell-based
Settings: maximum at any tested concentration, normalized to positive control, with 2 μM co-corrector
observed_property: Maximum % activity (with co-corrector)

Solved entries (count: 6):
COc1cccc2c1CCC[C@H]2C(=O)NS(=O)(=O)c1cccc2ccccc12 = +++ (≥350)
COc1cccc2c1CCC2C(=O)NS(=O)(=O)c1ccc(Cl)cc1[N+](=O)[O-] (centres unmarked) = ++ (≥150 and <350)
COc1cccc2c1CCC2C(=O)NS(=O)(=O)c1ccccn1 (centres unmarked) = + (<150)
O=C(NS(=O)(=O)c1cccc2ccccc12)C1(Cc2cccc(C(F)(F)F)n2)CCc2c(Cl)cccc21 (centres unmarked) = +++ (≥350)
Cc1ccccc1S(=O)(=O)NC(=O)C1CCc2c(-c3ccc(N(C)C)nc3)cccc21 (centres unmarked) = + (<150)
COc1cccc2c1CCC2C(=O)NS(=O)(=O)c1cc(C(=O)Nc2c(C)cccc2C)c(O)cc1Cl (centres unmarked) = + (<150)

query: Please give the measured Maximum % activity (with co-corrector) for this compound: Cc1ccccc1S(=O)(=O)NC(=O)C1(C)CCc2cccc(Cl)c21 (centres unmarked)
result: ++ (≥150 and <350)

query: Requested field: Maximum % activity (with co-corrector). Item: CCCC(=O)Nc1ccc(S(=O)(=O)NC(=O)C2CCc3c(OC)cccc32)cc1 (centres unmarked)
result: + (<150)

The values you see were collected from patent US20180244611A1.
